Test system: HepG2
assay text: Cytotoxicity against human HepG2 cells
Type: functional, cell-based
measured quantity: IC50 (nM)
Return type: number; implicit unit nM.

Use the examples below as a reference point.
CC(=O)OC[C@H]1O[C@@H](n2c(-c3ccccc3)cs/c2=N\N=C(/C)c2cc3ccccc3oc2=O)[C@H](OC(C)=O)[C@@H](OC(C)=O)[C@@H]1OC(C)=O | 1180
CC(=O)OC[C@H]1O[C@@H](n2c(-c3ccccc3)cs/c2=N\N=C\c2cc(=O)oc3cc(C)ccc23)[C@H](OC(C)=O)[C@@H](OC(C)=O)[C@@H]1OC(C)=O | 1180

Qu. Tell me its IC50 given `CC(=O)OC[C@H]1O[C@@H](n2c(-c3ccccc3)cs/c2=N\N=C\c2cc(=O)oc3cc(OCCC(C)C)ccc23)[C@H](OC(C)=O)[C@@H](OC(C)=O)[C@@H]1OC(C)=O` as the entry.
Ans. 1180

* * *

assay text: Cytotoxicity against human Lu1 cells
Assay type: functional, cell-based
measured quantity: pIC50
Just so you know, pIC50 here is -log10 of the concentration in molar units; reply with that number alone.

Some solved entries appear below for comparison.
CC(=O)OC[C@H]1O[C@@H](n2c(-c3ccccc3)cs/c2=N\N=C\c2cc(=O)oc3ccc(OCC(C)C)cc23)[C@H](OC(C)=O)[C@@H](OC(C)=O)[C@@H]1OC(C)=O | 5.93
CC(=O)OC[C@H]1O[C@@H](n2c(-c3ccccc3)cs/c2=N\N=C\c2cc(=O)oc3cc(C)ccc23)[C@H](OC(C)=O)[C@@H](OC(C)=O)[C@@H]1OC(C)=O | 5.93

Qu. Recall and state the measured pIC50 for `CC(=O)OC[C@H]1O[C@@H](n2c(-c3ccccc3)cs/c2=N\N=C(/C)c2cc3ccccc3oc2=O)[C@H](OC(C)=O)[C@@H](OC(C)=O)[C@@H]1OC(C)=O` .
Ans. 5.93

* * *

target entity: Bromodomain-containing protein 4 (Homo sapiens, UniProt O60885)
assay text: Inhibition of BRD4 (unknown origin)
measured quantity: pIC50
On this scale, pIC50 is minus log10 of a concentration expressed in M (mol/L).

Qu. Consider the compound `CCS(=O)(=O)Nc1ccc(Oc2ccccc2OC)c(-c2ccc3oc(=O)cc(OC)c3c2)c1` . State its measured pIC50.
Ans. 7.00

* * *

target entity: Vascular endothelial growth factor receptor 2 (Homo sapiens, UniProt P35968)
Sequence (P35968 whole entry): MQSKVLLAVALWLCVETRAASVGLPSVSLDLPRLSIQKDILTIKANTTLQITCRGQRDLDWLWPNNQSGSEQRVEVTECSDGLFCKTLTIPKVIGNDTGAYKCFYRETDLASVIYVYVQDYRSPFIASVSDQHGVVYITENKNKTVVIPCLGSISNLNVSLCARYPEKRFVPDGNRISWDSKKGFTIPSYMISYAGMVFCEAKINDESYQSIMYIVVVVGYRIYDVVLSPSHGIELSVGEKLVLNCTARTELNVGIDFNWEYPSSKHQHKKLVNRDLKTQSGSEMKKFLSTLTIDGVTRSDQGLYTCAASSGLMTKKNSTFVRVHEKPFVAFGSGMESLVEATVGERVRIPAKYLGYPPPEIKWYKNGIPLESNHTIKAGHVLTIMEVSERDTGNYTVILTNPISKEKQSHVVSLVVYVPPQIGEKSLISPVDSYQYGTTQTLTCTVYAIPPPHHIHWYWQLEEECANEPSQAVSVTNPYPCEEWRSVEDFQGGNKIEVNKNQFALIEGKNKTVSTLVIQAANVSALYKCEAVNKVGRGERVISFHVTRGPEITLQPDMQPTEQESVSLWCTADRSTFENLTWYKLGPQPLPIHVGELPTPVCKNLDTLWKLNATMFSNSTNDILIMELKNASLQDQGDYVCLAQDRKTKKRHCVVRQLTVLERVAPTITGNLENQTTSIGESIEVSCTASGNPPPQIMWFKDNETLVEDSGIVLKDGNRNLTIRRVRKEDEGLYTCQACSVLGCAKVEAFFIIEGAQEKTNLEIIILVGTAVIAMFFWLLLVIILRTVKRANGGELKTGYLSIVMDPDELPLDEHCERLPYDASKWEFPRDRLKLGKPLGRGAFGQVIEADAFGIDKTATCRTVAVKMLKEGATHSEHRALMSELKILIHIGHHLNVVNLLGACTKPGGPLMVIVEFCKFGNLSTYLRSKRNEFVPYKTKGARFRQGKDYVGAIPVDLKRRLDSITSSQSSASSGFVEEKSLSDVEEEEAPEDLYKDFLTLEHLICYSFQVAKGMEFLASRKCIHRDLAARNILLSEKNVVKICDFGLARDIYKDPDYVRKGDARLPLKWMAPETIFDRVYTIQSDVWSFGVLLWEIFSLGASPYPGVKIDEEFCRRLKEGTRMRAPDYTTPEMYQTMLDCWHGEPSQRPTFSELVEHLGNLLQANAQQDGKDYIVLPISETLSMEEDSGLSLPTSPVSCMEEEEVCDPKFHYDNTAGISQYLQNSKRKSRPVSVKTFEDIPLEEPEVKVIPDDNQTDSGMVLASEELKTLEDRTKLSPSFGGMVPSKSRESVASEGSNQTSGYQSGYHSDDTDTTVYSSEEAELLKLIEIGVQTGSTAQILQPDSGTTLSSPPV
assay text: Inhibition of human VEGFR2
// values below are reported IC50

As a guide, the following entries are already answered.
CC1SC(N2N=C(c3cc4ccccc4oc3=O)CC2c2ccc(N(C)C)cc2)=NC1=O (stereo not drawn) | 34 nM
Cc1nc(N2N=C(c3cc4ccccc4oc3=O)CC2c2ccc(N(C)C)cc2)sc1/N=N/c1ccc(Cl)cc1 (stereo not drawn) | 34 nM

Qu. State its IC50: CN(C)c1ccc(C2CC(c3c(O)c4ccccc4oc3=O)=NN2c2nc(-c3ccccc3)c(/N=N/c3ccc(Cl)cc3)s2)cc1 (stereo not drawn)
Ans. 34 nM

* * *

System: HepG2
assay text: Cytotoxicity against human HepG2 cells incubated for 2 days by Neutral Red staining based assay
Format: functional, cell-based
assay context: HepG2, 48 h
measured quantity: IC50 (µM)
Entry rule: numbers only, all in µM.

Qu. Please supply the value of reported IC50 for the item C=CC(C)(C)c1cc2c(O)c3c(c(C(C)(C)C=C)c2oc1=O)OC(C)(C)C=C3 [CLAUSARIN]
Ans. 7.6

* * *

Entries annotated with measured pIC50
target entity: UniProt:P04626
Sequence (P04626 whole entry): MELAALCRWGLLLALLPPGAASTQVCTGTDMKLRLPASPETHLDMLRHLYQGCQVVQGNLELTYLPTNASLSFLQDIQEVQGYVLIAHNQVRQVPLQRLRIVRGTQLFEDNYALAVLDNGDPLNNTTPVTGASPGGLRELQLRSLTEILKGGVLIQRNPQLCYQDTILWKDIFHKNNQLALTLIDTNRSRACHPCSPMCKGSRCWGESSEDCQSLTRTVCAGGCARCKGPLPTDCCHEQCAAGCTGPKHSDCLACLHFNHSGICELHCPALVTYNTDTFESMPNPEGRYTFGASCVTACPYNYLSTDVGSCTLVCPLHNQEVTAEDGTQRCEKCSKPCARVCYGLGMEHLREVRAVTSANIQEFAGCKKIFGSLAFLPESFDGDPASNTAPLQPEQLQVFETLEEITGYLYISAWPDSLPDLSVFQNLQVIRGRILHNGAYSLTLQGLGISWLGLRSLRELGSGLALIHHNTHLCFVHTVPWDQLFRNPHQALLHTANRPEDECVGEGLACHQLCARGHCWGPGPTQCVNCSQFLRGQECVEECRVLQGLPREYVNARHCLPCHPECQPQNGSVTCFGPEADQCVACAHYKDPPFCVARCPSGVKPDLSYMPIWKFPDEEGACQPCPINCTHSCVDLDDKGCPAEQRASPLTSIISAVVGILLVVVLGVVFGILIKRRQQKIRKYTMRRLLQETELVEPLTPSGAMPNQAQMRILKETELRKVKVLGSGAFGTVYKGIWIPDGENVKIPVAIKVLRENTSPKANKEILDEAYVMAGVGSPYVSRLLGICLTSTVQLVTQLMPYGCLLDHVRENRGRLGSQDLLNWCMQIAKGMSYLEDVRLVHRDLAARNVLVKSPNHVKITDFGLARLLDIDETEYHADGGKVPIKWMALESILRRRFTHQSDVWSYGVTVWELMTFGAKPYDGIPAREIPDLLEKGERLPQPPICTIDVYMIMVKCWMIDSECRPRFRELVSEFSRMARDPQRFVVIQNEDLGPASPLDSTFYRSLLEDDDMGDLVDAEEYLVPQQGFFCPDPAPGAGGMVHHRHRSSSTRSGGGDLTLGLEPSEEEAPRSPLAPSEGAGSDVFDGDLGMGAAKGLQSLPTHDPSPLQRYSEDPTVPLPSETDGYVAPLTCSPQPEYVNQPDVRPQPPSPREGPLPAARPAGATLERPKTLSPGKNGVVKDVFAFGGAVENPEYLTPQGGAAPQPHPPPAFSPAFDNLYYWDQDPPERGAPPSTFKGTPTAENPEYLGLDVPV
FYI, pIC50 means -log10 of a concentration in mol per litre.

CCCCCOc1ccc2oc(=O)cc(/C=N/N=c3\scc(-c4ccccc4)n3[C@@H]3O[C@H](COC(C)=O)[C@@H](OC(C)=O)[C@H](OC(C)=O)[C@H]3OC(C)=O)c2c1 | 6.82
CC(=O)OC[C@H]1O[C@@H](N(C(C)=O)C2=NN(C(C)=O)C(c3cc(=O)oc4cc(OCCC(C)C)ccc34)S2)[C@H](OC(C)=O)[C@@H](OC(C)=O)[C@@H]1OC(C)=O (stereo not given in full) | 6.89
CC(=O)OC[C@H]1O[C@@H](n2c(-c3ccccc3)cs/c2=N\N=C\c2cc(=O)oc3cc(OCCC(C)C)ccc23)[C@H](OC(C)=O)[C@@H](OC(C)=O)[C@@H]1OC(C)=O | 6.82
CCCCOc1ccc2oc(=O)cc(C3SC(N(C(C)=O)[C@@H]4O[C@H](COC(C)=O)[C@@H](OC(C)=O)[C@H](OC(C)=O)[C@H]4OC(C)=O)=NN3C(C)=O)c2c1 (stereo not given in full) | 6.89

Continue with the molecule presented below.
Qu. Write pIC50 of CCOc1ccc2oc(=O)cc(C3SC(N(C(C)=O)[C@@H]4O[C@H](COC(C)=O)[C@H](OC(C)=O)[C@H](OC(C)=O)[C@H]4OC(C)=O)=NN3C(C)=O)c2c1 (stereo not given in full) ; system used: UniProt:P04626
Ans. 6.89
